Here the recorded pKi is given for each entry.
# Target or system: Adenosine receptor A2a (Homo sapiens, UniProt P29274)
# Sequence (P29274 whole entry): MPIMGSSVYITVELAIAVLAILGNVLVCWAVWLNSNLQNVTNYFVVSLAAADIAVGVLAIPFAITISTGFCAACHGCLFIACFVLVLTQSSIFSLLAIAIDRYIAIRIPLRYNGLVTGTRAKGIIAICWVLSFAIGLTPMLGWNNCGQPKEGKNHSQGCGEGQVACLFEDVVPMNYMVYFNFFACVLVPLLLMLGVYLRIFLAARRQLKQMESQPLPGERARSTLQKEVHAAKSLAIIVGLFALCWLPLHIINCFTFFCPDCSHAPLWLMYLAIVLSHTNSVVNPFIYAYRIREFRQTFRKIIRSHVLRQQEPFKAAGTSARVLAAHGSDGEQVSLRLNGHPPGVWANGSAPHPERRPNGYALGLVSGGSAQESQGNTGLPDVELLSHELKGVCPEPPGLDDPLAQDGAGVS
# Procedure details: Displacement of [3H]MSX-2 from recombinant human A2A adenosine receptor expressed in CHO cell membranes measured after 30 mins in presence of adenosine deaminase by liquid scintillation counting method
pKi: −log10 of the molar value.

Worked set:
>>> observed_measurement("CCCn1c(=O)[nH]c2nc(-c3ccc(S(=O)(=O)N4CCN(c5ccc(Br)cc5)CC4)cc3)[nH]c2c1=O")
"< 6.00"
>>> observed_measurement("CCCn1c(=O)c2[nH]c(-c3ccc(S(=O)(=O)N4CCN(c5ccc(Cl)cc5)CC4)cc3)nc2n(C)c1=O")
"< 6.00"

Now for a further compound.
In: Give the measured pKi of CCCn1c(=O)[nH]c2nc(-c3ccc(S(=O)(=O)N4CCN(c5cccc(F)c5)CC4)cc3)[nH]c2c1=O .
Out: < 6.00
